From: patent US20130012527A1

target: M1 RNA (80 queC, cytidine 34 replaced with uridine); experiment: In-line probing analysis of 80 queC mutant M1; conditions: M1 (C34U); data not shown

Compound: Nc1nc(N)c2[nH]cnc2n1 [2,6-diaminopurine]
Kd: > 300 µM

====

target: wild-type 80 queC RNA; experiment: In-line probing analysis of wild-type 80 queC RNA; details: 80 queC
Value Kind: Kd

Mol Smiles: Nc1nc(N)c2[nH]cnc2n1
Result: > 300 µM
